The measurements presented in this section are drawn from patent US8394772B2.

ASSAY_SYSTEM: human sodium glucose cotransporter 2 (Homo sapiens)
Construct: expressed in transfected cells; host or cells: CHO-K1 (ATCC CCL-61) or HEK293 (ATCC CRL-1573), stably transfected with pZeoSV
Sequence (P31639 1-672): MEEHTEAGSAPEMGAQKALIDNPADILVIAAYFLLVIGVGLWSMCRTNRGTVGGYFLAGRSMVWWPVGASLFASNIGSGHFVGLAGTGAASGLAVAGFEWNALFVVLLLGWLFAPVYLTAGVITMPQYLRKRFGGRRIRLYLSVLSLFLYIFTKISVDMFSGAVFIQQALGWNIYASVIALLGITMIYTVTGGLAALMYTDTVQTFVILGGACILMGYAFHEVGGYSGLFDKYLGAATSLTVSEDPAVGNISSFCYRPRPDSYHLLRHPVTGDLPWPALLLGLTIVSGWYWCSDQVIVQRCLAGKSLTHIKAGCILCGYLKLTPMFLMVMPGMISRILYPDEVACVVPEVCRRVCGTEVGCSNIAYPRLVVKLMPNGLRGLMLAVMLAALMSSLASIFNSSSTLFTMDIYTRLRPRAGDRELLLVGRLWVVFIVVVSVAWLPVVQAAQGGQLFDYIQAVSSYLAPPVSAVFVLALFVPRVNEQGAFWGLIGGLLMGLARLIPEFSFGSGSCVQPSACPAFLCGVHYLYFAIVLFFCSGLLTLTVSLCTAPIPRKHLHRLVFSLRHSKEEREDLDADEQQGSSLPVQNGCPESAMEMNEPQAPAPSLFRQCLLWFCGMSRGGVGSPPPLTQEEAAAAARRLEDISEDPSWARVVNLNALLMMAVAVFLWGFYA
PROCEDURE_SUMMARY: SGLT-2 assay: sodium-dependent 14C-AMG uptake in CHO-hSGLT2 or HEK-hSGLT2 cells
Type: cell-based
CONDITION_SUMMARY: n = 1-4, hSGLT2-transfected CHO-K1 or HEK293 cells, read-out: SGLT2 IC50 nM (n = 1-4)
QUANTITY_NAME: IC50 (nM)

>  <SMILES_NOTATION>
CCOc1ccc(Cc2cc([C@@H]3OC(CO)(CO)[C@@H](O)[C@H](O)[C@H]3O)ccc2Cl)cc1

>  <ASSAY_SYSTEM>
human sodium glucose cotransporter 2 (Homo sapiens)

>  <IC50 (nM)>
23

$$$$
>  <SMILES_NOTATION>
CCOc1ccc(Cc2cc([C@@H]3OC4(CC4)[C@@H](O)[C@H](O)[C@H]3O)ccc2C)cc1

>  <ASSAY_SYSTEM>
human sodium glucose cotransporter 2 (Homo sapiens)

>  <IC50 (nM)>
0.9

$$$$

A = Oc1ccc(Cc2cc([C@@H]3OC4(CC4)[C@@H](O)[C@H](O)[C@H]3O)ccc2Cl)cc1
B = CCOc1ccc(Cc2cc([C@@H]3OC4(CC4)[C@@H](O)[C@H](O)[C@H]3O)ccc2Cl)cc1
**Query** Response body: label of entry with the larger IC50; valid values A , B . Response format: the label of the selected entry.
**Result** A
(A: 2.6 nM, B: 1 nM)
